# Test system: MDA-MB-468 breast
# PROTOCOL_DETAILS: NCI-60 one-dose screen, 48 h
# APPLIED_CONDITIONS: 10 µM unless noted
This is part of a sample that, as a whole, favours compounds with a hit. Of some 83,000 tested, about 20% had one in any assay. Calls of active or inactive are those of the source. How the source made its calls: active means growth percent below 10; inactive means the rest.
Give your call using only these classes: class 1 for active, class 0 for inactive

>>> class_name("Cc1c(-c2nc3ccc(F)cc3c(=O)[nH]2)c2ccccc2n1C")
"class 1"
>>> class_name("O=C(NCCNC(=O)c1ccc(Cl)cc1Cl)c1ccc(Cl)cc1Cl")
"class 0"
>>> class_name("COc1ccc2c(/C=C3/C(=O)NC(=S)NC3C)cc(=O)oc2c1 (stereo not given)")
"class 0"
>>> class_name("COc1cc2c(cc1-c1c(C)noc1C)ncc1nc(C3CCC(F)(F)CC3)n([C@H](C)COC(F)F)c12")
"class 0"

Alright, here's another compound for you.
Q: Fill in: this test's call for COc1cc2c3c(c4c5ccccc5[nH]c4c2c(OC)c1OC)C(=O)N(CCN1CCCCC1)C3=O is ___
Ans: class 0

* * *

# Tested on: MDA-MB-468 breast
# PROTOCOL_DETAILS: NCI-60 one-dose screen, 48 h
# APPLIED_CONDITIONS: 10 µM unless noted
The panel holds about 83,000 compounds, 20% with a hit somewhere; the sample as a whole holds those more often. Calls of active or inactive are those of the source. Rule for the calls: active = growth percent below 10; inactive = the rest.
Give your call using only these classes: active, inactive

Take a look at these entries with their results.
>>> class_name("c1csc(-c2cn3nc(-c4c[nH]c5ccccc45)sc3n2)c1")
"inactive"
>>> class_name("COC(c1ccccc1)(c1ccccc1)c1ccccc1")
"inactive"
>>> class_name("C1CCc2onc(-c3noc4c3CCCCC4)c2CC1")
"inactive"
>>> class_name("C(CCCC1=NCCO1)CCCC1=NCCO1")
"inactive"
>>> class_name("O=C1/C(=C/c2ccc(Br)cc2)COc2ccc(O)c(O)c21")
"active"

Q: Fill in: this test's call for O=C(CCCCCCN1CC(=O)N2[C@@H](c3cccs3)c3[nH]c4ccccc4c3C[C@H]2C1=O)NO is ___
Ans: inactive

Q: Fill in: this test's call for O=C(CSc1nc(-c2ccc(Cl)cc2)cn1-c1ccc(Cl)cc1)c1ccc(Br)cc1 is ___
Ans: inactive

Q: Fill in: this test's call for OCC(O)C(O)C(O)C(/C=N/Nc1ccccc1)=N/Nc1ccccc1 (stereo not given) is ___
Ans: inactive

Q: Fill in: this test's call for C[C@]12CC[C@H]3[C@@H](CC[C@H]4C[C@@H](O)CC[C@@]43C)[C@@H]1CC(=O)C2 is ___
Ans: inactive

Q: Fill in: this test's call for CCN1CCN(Cc2ccc(NC(=O)Nc3nc4ccc(Oc5ccnc(C(=O)NC)c5)cc4s3)cc2C(F)(F)F)CC1 is ___
Ans: active

Q: Fill in: this test's call for COc1cccc(C(=O)NNc2nc(Cl)nc(Cl)n2)c1 is ___
Ans: inactive

Q: Fill in: this test's call for NC(=O)c1nc2c([nH]c1=O)CCCC2 is ___
Ans: inactive

Q: Fill in: this test's call for CCOC(=O)c1cc(C(=O)c2ccc(OC)c(OC)c2)n2ccncc12 is ___
Ans: inactive

Q: Fill in: this test's call for CCCCCCCCCCCC(=O)C(CCCCCCCCCC)C(=O)Nc1ccccc1 (stereo not given) is ___
Ans: inactive

Q: Fill in: this test's call for Cc1c(-c2cnc3ccc(Cl)cc3c2C(=O)O)nnn1-c1ccc(Cl)cc1 is ___
Ans: inactive

Q: Fill in: this test's call for COc1ccc(-c2nc3ccccc3n3cccc23)cc1 is ___
Ans: inactive

Q: Fill in: this test's call for Cc1ccc(NC(=O)N[C@@H](Cc2cc(F)cc(F)c2)C(=O)NC2C(=O)N3CCC[C@H]3C(=O)N3CCCC[C@H]3C(=O)N[C@@H](C)C(=O)N3C[C@H](C)C[C@H]3C(=O)O[C@H]2C)c(F)c1 (stereo not given in full) is ___
Ans: active

Q: Fill in: this test's call for N#CCc1ncc(-c2ccc(C(F)(F)F)cc2)c(NC2CCCCCC2)n1 is ___
Ans: inactive

Q: Fill in: this test's call for CC(C)=CCC[C@](C)(O)[C@H]1CC[C@]2(C)[C@@H]1CC[C@@H]1[C@@]3(C)C/C(=C/c4ccco4)C(=O)C(C)(C)[C@@H]3CC[C@]12C is ___
Ans: inactive

Q: Fill in: this test's call for COc1cc(C(=O)c2cc(C(C)=O)c3cccc(C)n23)cc(OC)c1OC is ___
Ans: inactive
